Task for the reader: assign each of the following compounds its reported logP.
Test: Lipophilicity, log P of the compound
Assay type: physicochemical
Settings: octanol/water
Numbers only.

Field: example entries. Status: answers known.
>  <Compound>
C=C(c1cccc2ccccc12)C1CCC2(CC1)COC(Nc1ccc(C)cc1)OO2 (stereo not given)

>  <logP>
6.08

$$$$
>  <Compound>
C=C(c1cccc2ccccc12)C1CCC2(CC1)COC(Nc1ccccc1)OO2 (stereo not given)

>  <logP>
5.59

$$$$
>  <Compound>
C=C(c1ccc2ccc3ccccc3c2c1)C1CCC2(CC1)COC(Nc1cccc(C(F)(F)F)c1)OO2 (stereo not given)

>  <logP>
7.51

$$$$
>  <Compound>
C=C(c1ccc2c(c1)Cc1ccccc1-2)C1CCC2(CC1)COC(Nc1ccc(C)cc1)OO2 (stereo not given)

>  <logP>
6.81

$$$$

Switching to the query record.
q: // returns reported logP for input C=C(c1ccc2ccc3ccccc3c2c1)C1CCC2(CC1)COC(Nc1cc(Cl)cc(Cl)c1)OO2 (stereo not given)
a: 7.7

Hey, just so you know, these numbers are from ChEMBL document CHEMBL1275344.
